- Tested on: Pancreatic protease Type I
- test-details: Experiment 5A peptide stability to protease degradation
- Type: in vitro ADME
- assay-setup: 8 μg/ml protease, 20 minutes at 37 degrees C; read-out: percentage of surviving peptide after protease treatment
Ends that are not written are not given here.
property-name: remaining at 20 min (%)
Return type: number; implicit unit %.

What does the record list as remaining at 20 min for RGVTEDYLRLETLVQKVVSKGFYKKKQCRPSKGRKRGFCWAVD (cysteines drawn unpaired) [sV-nephrilin] ? 75.1

---

- test-details: Experiment 4D binding to FITC-labelled heparin
- assay-setup: biotinylated peptide 1 ug/well; 1 ug FITC-labelled heparin, 90 minutes
property-name: Heparin binding, counts normalized for immX3 peptide binding=100
Reply with just the number.

What does the record list as Heparin binding, counts normalized for immX3 peptide binding=100 for RKGFYKRKQCKPSRGRKRGICWAVD [immX5AVD] ? 68.7

One more substance: RNGNFHPKQCHPALDGQRGKCWAVD [immX4AVD] 7.3
